Origin of measurements: ChEMBL document CHEMBL4265904

assay: Antiproliferative activity against human AC16 cells by MTT assay; type: cell-based
Consider the following molecules and their measured pIC50 readings.
Note on units: pIC50 is unitless, being -log10 of a concentration expressed in mol/L.

INSERT INTO results (molecule, measure_name, value_measured) VALUES
  ('CC[C@H](C)[C@@H](C(=O)O[C@H]1CC[C@@]2(C)[C@H](CC[C@@H]3[C@@H]2[C@H](O)C(=O)[C@]2(C)[C@@H](c4ccc(=O)oc4)CC[C@]32O)C1)n1[se]c2cc(OC)ccc2c1=O', 'pIC50', 4.82),
  ('Cc1ccc2c(=O)n(CC(=O)O[C@H]3CC[C@@]4(C)[C@H](CC[C@@H]5[C@@H]4[C@H](O)C(=O)[C@]4(C)[C@@H](c6ccc(=O)oc6)CC[C@]54O)C3)[se]c2c1', 'pIC50', 5.67),
  ('COc1ccc2c(=O)n([C@@H](Cc3ccccc3)C(=O)O[C@H]3CC[C@@]4(C)[C@H](CC[C@@H]5[C@@H]4[C@H](O)C(=O)[C@]4(C)[C@@H](c6ccc(=O)oc6)CC[C@]54O)C3)[se]c2c1', 'pIC50', 5.66),
  ('C[C@]12CC[C@H](O)C[C@H]1CC[C@@H]1[C@@H]2[C@H](O)C(=O)[C@]2(C)[C@@H](c3ccc(=O)oc3)CC[C@]12O', 'pIC50', 8.30),
  ('C[C@]12CC[C@H](OC(=O)[C@H](Cc3ccccc3)n3[se]c4ccccc4c3=O)C[C@H]1CC[C@@H]1[C@@H]2[C@H](O)C(=O)[C@]2(C)[C@@H](c3ccc(=O)oc3)CC[C@]12O', 'pIC50', 5.49);

*Q* Sample `C[C@]12CC[C@H](OC(=O)[C@H](Cc3ccccc3)n3[se]c4cc(C(F)(F)F)ccc4c3=O)C[C@H]1CC[C@@H]1[C@@H]2[C@H](O)C(=O)[C@]2(C)[C@@H](c3ccc(=O)oc3)CC[C@]12O` — what was its pIC50?
*A* 5.37

*Q* What measured pIC50 goes with `Cc1ccc2c(=O)n([C@@H](Cc3ccccc3)C(=O)O[C@H]3CC[C@@]4(C)[C@H](CC[C@@H]5[C@@H]4[C@H](O)C(=O)[C@]4(C)[C@@H](c6ccc(=O)oc6)CC[C@]54O)C3)[se]c2c1` ?
*A* 5.45
